Every entry's value here was drawn from PubChem BioAssay (NCATS).

Biological target: Glucocorticoid receptor (Homo sapiens)
Test: GR-EFC Redistribution (AID 451)
Conditions: CHO-K1 GR-EFC translocation, beta-gal luminescence, 2 h
Calls of active or inactive are those of the source. Calls follow the shape of the full dose curve.
Possible outcomes: true (1) = active, false (0) = inactive

N=C(N)SCCN1CCCCC1 :: false (0)
O=C(O)c1ccc([N+]2=Cn3c(nc4ccccc43)C2)cc1 :: false (0)
S=c1nc(-c2nc(=S)[nH]c3c2CCCCCCCCCC3)c2c([nH]1)CCCCCCCCCC2 :: false (0)
CC(=O)O[C@H]1CC[C@@]2(C)C(=CC[C@@H]3[C@@H]4CC[C@H](c5cc(C(F)(F)F)n(C(C)=O)n5)[C@]4(C)CC[C@@H]32)C1 :: false (0)
C[N+](C)(C)c1ncnc2c1ncn2[C@@H]1C[C@H](O)[C@@H](CO)O1 :: false (0)
OC[C@@H]1O[C@@H](n2cnc3c(SCc4ccccc4)ncnc32)[C@@H](O)[C@H]1O :: false (0)
O=C(c1ccccc1)[C@H](Nc1ccc2ccccc2c1)c1ccccc1 :: false (0)
S=C1NCN2CCN(CC2)CNC(=S)C(=S)NCN2CCN(CC2)CNC1=S :: false (0)
NS(=O)(=O)c1ccc(N=Nc2ncccc2O)cc1 :: false (0)
CC(NC(=O)c1ccccc1)(C(=O)O)C(=O)O :: false (0)
CCc1ccc(CCC(=O)O)nc1 :: false (0)
Nc1c(S(=O)(=O)O)cc(S(=O)(=O)O)c2ccc(N=Nc3ccccc3)c(O)c12 :: false (0)
CN1CCN(c2ccncc2S(=O)(=O)N2CCN(C)CC2)CC1 :: false (0)
COc1cccc(Cn2c(=O)c(C)nc3cnc(Oc4cccc(Cl)c4)nc32)c1 :: false (0)
CC1(C)[C@@H]2CC[C@@](C)(C2)[C@H]1OC(=O)c1ccccc1C(=O)O :: false (0)
O=C(O)[C@H]1CCc2ccc3ccccc3c2[C@H]1c1cccc2ccccc12 :: false (0)
COc1cc(C(=O)O)c([N+](=O)[O-])c(OC)c1OC :: false (0)
O=C(O)CSc1ccc(N=C=S)cc1 :: false (0)
CCN(CC)C[C@@H](O)c1ccc2ccc3ccccc3c2c1 :: false (0)
C[C@@H](N)/C(N)=N/O :: false (0)
Nc1nccc(Nc2ccc(S(N)(=O)=O)cc2)n1 :: false (0)
CC[C@H](C(=O)c1cccs1)C(O)(C(F)(F)F)C(F)(F)F :: false (0)
N=C(N)c1ccc(/C=C\c2ccc(C(=N)N)cc2)cc1 :: false (0)
S=c1[nH]nc(SCc2ccccc2Cl)c2[nH]cnc12 :: false (0)
O=[N+]([O-])c1ccccc1N=Nc1c(O)[nH]c2ccc(S(=O)(=O)O)cc12 :: false (0)
OC[C@@H]1NC[C@@H](O)[C@H]1O :: false (0)
CN(C)S(=O)(=O)Nc1ccccn1 :: false (0)
C[N@@+]1(Cc2ccc(Cl)c(Cl)c2)CCC[C@@H]1c1ccc[n+](Cc2ccc(Cl)c(Cl)c2)c1 :: false (0)
C[C@]12C=CC(=O)C=C1CC[C@@H]1[C@H]3C[C@@H](O)[C@](O)(C(=O)CO)[C@]3(C)C[C@H](O)[C@]12F :: true (1)
NC1=N[C@H](c2ccc(Cl)cc2)N(c2ccc(S(=O)(=O)Nc3ncccn3)cc2)C(N)=N1 :: false (0)
O=C1c2cccc([N+](=O)[O-])c2C(=O)N1c1ncn[nH]1 :: false (0)
C[N+]1(CCN=C=NC2CCCCC2)CCOCC1 :: false (0)
O=S(=O)(c1ccccc1)N1CN2CN(C1)CN(S(=O)(=O)c1ccccc1)C2 :: false (0)
Cc1[nH]c2ccccc2c1-c1cc(-c2cc(-c3c(C)[nH]c4ccccc34)on2)no1 :: false (0)
O=C(O)CN1C(=O)O[C@@H](c2ccccc2)C1=O :: false (0)
Cn1c(=O)c2[nH]c(SCc3ccccn3)nc2n(C)c1=S :: false (0)
c1ccc(CN2CCC3(CC2)SSC2(CCN(Cc4ccccc4)CC2)SS3)cc1 :: false (0)
S=C(S)NCCN1CCNCC1 :: false (0)
NS(=O)(=O)c1ccc(N=Nc2cc3ccccc3c(C(=O)O)c2O)cc1 :: false (0)
Cc1ccc(-c2nc(-c3nccc4ccccc34)oc2-c2ccccc2)cc1 :: false (0)
C[C@@H](CCC(=O)O)C(=O)O :: false (0)
N#CC(C#N)=CNCCN1CCN(C=C(C#N)C#N)CC1 :: false (0)
O=c1c[n+](CCCC[n+]2cc(=O)o[nH]2)[nH]o1 :: false (0)
CC(C)C[C@H](N)C(=O)O :: false (0)
CC(C)(CO[C@H]1C[C@H]2CC[C@@]1(C)C2(C)C)[N+](=O)[O-] :: false (0)
